- System: lambsquarters (Chenopodium album)
- protocol.text: Test D pre-/postemergence plant response
- Assay type: in vivo
- measurement.conditions: Postemergence, 31 g ai/ha; scale 0 to 100 (0 no effect, 100 complete control)
Below, each entry is listed alongside its reported Lambsquarters plant response rating.

molecule | Lambsquarters plant response rating
Cc1cc(-c2ccccc2Oc2ncc(Cl)cn2)no1 [Compound 153] | 35
Clc1cnc(Oc2ccccc2-c2ccon2)nc1 [Compound 185] | 10
Cn1nnc(-c2ccccc2Oc2ncc(Br)cn2)n1 [Compound 50] | 5
Cc1cc(-c2c(F)cccc2Oc2ncc(Cl)cn2)on1 [Compound 229] | 70
CC(F)(F)c1cc(-c2ccccc2Oc2ncc(Br)cn2)no1 [Compound 149] | 70
FC(F)Oc1cccc(Oc2ncc(Cl)cn2)c1-c1cc(C(F)F)on1 [Compound 131] | 98
FC(F)(F)c1cc(-c2c(Br)cccc2Oc2ncc(Cl)cn2)no1 [Compound 170] | 40
Cc1cc(-c2c(F)cccc2Oc2ncc(Br)cn2)on1 [Compound 230] | 70
FCc1cc(-c2ccccc2Oc2ncc(Cl)cn2)on1 [Compound 224] | 75
Clc1cnc(Oc2ccccc2-c2cc(Cl)sn2)nc1 [Compound 192] | 50
N#Cc1cccc(Oc2ncc(Cl)cn2)c1-c1cc(C(F)F)on1 [Compound 180] | 80

* * *

Quick reference for Plant response rating, Ryegrass, Italian among some compounds
- Tested on: Italian ryegrass (Lolium multiflorum)
- protocol.text: Test D pre-/postemergence plant response
- Format: in vivo
- measurement.conditions: Postemergence, 125 g ai/ha; scale 0 to 100, 0 no effect, 100 complete control

molecule | Plant response rating, Ryegrass, Italian
FC(F)(Br)c1cc(-c2ccccc2Oc2ncc(Cl)cn2)no1 | 5
FC(F)c1cc(-c2c(Cl)cccc2Oc2ncc(Br)cn2)on1 | 55
Fc1ccc(Oc2ncc(Cl)cn2)c(-c2cc(C(F)F)on2)c1F | 5
FC(F)(F)c1cc(-c2ccccc2Oc2ncc(Cl)cn2)ncn1 | 0
Clc1cnc(Oc2ccccc2-c2cc(Cl)sn2)nc1 | 0
Clc1cnc(Oc2ccccc2-c2ccon2)nc1 | 0
Fc1ccc(Oc2ncc(Cl)cn2)c(-c2cc(C(F)F)on2)c1Cl | 10
Fc1cccc(Oc2ncc(Cl)cn2)c1-c1cc(C2CC2)on1 | 15

* * *

# Wheat plant response rating per record follows
- System: winter wheat (Triticum aestivum)
- protocol.text: Test D pre-/postemergence plant response
- Type: in vivo
- measurement.conditions: Postemergence, 31 g ai/ha; scale 0 to 100 (0 no effect, 100 complete control)

compound | assayed.target | Wheat plant response rating
Fc1cccc(Oc2ncc(Br)cn2)c1-c1cc(C(F)F)on1 | winter wheat (Triticum aestivum) | 0
FCc1cc(-c2ccccc2Oc2ncc(Cl)cn2)on1 | winter wheat (Triticum aestivum) | 0
CC(F)(F)c1cc(-c2ccccc2Oc2ncc(Br)cn2)no1 | winter wheat (Triticum aestivum) | 0
FC(F)c1cc(-c2ccccc2Oc2ncc(Br)cn2)on1 | winter wheat (Triticum aestivum) | 5
FC(F)c1cc(-c2c(Cl)cccc2Oc2ncc(Cl)cn2)on1 | winter wheat (Triticum aestivum) | 0
FC(Cl)c1cc(-c2ccccc2Oc2ncc(Cl)cn2)no1 (stereo not drawn) | winter wheat (Triticum aestivum) | 0
Cc1cc(-c2c(F)cccc2Oc2ncc(Br)cn2)on1 | winter wheat (Triticum aestivum) | 5
FC(F)Oc1cccc(Oc2ncc(Cl)cn2)c1-c1cc(C(F)F)on1 | winter wheat (Triticum aestivum) | 0
FC(F)c1cc(-c2c(Cl)cccc2Oc2ncc(Cl)cn2)no1 | winter wheat (Triticum aestivum) | 10

* * *

- System: Italian ryegrass (Lolium multiflorum)
- protocol.text: Test E pre-/postemergence plant response
- Format: in vivo
- measurement.conditions: post-emergence, 16 g ai/ha, Postemergence, scale 0 to 100, read-out: Plant response rating, Ryegrass, Italian
The entries below come with measured pest or weed control at 16 g/ha values attached.

molecule | pest or weed control at 16 g/ha
FC(F)c1cc(-c2ccccc2Oc2ncc(Br)cn2)no1 | 10%
FC(F)c1cc(-c2ccccc2Oc2ncc(Cl)cn2)no1 | 0%
Fc1cccc(Oc2ncc(Cl)cn2)c1-c1cc(C(F)F)no1 | 5%
FC(F)c1cc(-c2ccccc2Oc2ncc(Cl)cn2)on1 | 0%

* * *

- Tested on: ragweed (common ragweed, Ambrosia elatior)
- protocol.text: Test D pre-/postemergence plant response
- Format: in vivo
- measurement.conditions: Ambrosia artemisiifolia, post-emergence; Postemergence, 31 g ai/ha; scale 0 to 100 (0 no effect, 100 complete control); read-out: Ragweed plant response rating
# strict inequality: pest or weed control at 31 g/ha < 60% yields TRUE, everything else yields FALSE

molecule | class.name
FC(F)c1cc(-c2ccccc2Oc2ncc(Cl)cn2)no1 | FALSE
FC(F)c1cc(-c2ccccc2Oc2ncc(Br)cn2)no1 | FALSE
FC(F)(F)c1cc(-c2ccccc2Oc2ncc(Cl)cn2)no1 | TRUE
Fc1cccc(Oc2ncc(Cl)cn2)c1-c1cc(C(F)(F)F)on1 | TRUE
Fc1cccc(Oc2ncc(Br)cn2)c1-c1cc(C(F)F)no1 | TRUE

* * *

- Tested on: velvetleaf (Abutilon theophrasti)
- protocol.text: Test D pre-/postemergence plant response
- Type: in vivo
- measurement.conditions: Abutilon theophrasti, post-emergence; Postemergence, 31 g ai/ha; scale 0 to 100 (0 no effect, 100 complete control); read-out: Velvetleaf plant response rating

molecule | assayed.target | endpoint.unit | pest or weed control at 31 g/ha
Fc1cccc(Oc2ncc(Br)cn2)c1-c1cc(C(F)F)no1 | velvetleaf (Abutilon theophrasti) | % | 70
Fc1cccc(Oc2ncc(Cl)cn2)c1-c1cc(C(F)F)no1 | velvetleaf (Abutilon theophrasti) | % | 55
FC(F)c1cc(-c2ccccc2Oc2ncc(Cl)cn2)on1 | velvetleaf (Abutilon theophrasti) | % | 60
Fc1cccc(Oc2ncc(Cl)cn2)c1-c1cc(C(F)(F)F)on1 | velvetleaf (Abutilon theophrasti) | % | 40
FC(F)(F)c1cc(-c2ccccc2Oc2ncc(Cl)cn2)on1 | velvetleaf (Abutilon theophrasti) | % | 25

* * *

- Tested on: kochia (Kochia scoparia)
- protocol.text: Test B pre-/postemergence plant response
- Format: in vivo
- measurement.conditions: Postemergence, 500 g ai/ha; 0 to 100 scale (0 no effect, 100 complete control)

compound | assayed.target | Plant response rating, Kochia
FC(F)(F)c1ccnc(-c2c(Cl)cccc2Oc2ncc(Cl)cn2)c1 [Compound 159] | kochia (Kochia scoparia) | 80
Clc1cnc(Oc2ccccc2-c2cccs2)nc1 [Compound 182] | kochia (Kochia scoparia) | 80
Clc1cnc(Oc2ccccc2-c2cc(C3CC3)on2)nc1 [Compound 183] | kochia (Kochia scoparia) | 100
FC(F)(F)c1csc(-c2ccccc2Oc2ncc(Br)cn2)n1 [Compound 139] | kochia (Kochia scoparia) | 0

* * *

- System: spring wheat (Triticum aestivum)
- protocol.text: Test E pre-/postemergence plant response
- Format: in vivo
- measurement.conditions: post-emergence, 62 g ai/ha, Postemergence, scale 0 to 100, read-out: Plant response rating, Wheat, Spring
Recorded plant injury at 62 g/ha values for a group of molecules are listed next.
measurement.label: plant injury at 62 g/ha (%)

molecule | assayed.target | value.reported
FC(F)c1cc(-c2ccccc2Oc2ncc(Br)cn2)no1 [Compound 62] | spring wheat (Triticum aestivum) | 25
FC(F)c1cc(-c2ccccc2Oc2ncc(Cl)cn2)on1 [Compound 53] | spring wheat (Triticum aestivum) | 20
Fc1cccc(Oc2ncc(Cl)cn2)c1-c1cc(C(F)F)on1 [Compound 55] | spring wheat (Triticum aestivum) | 25
FC(F)c1cc(-c2ccccc2Oc2ncc(Cl)cn2)no1 [Compound 35] | spring wheat (Triticum aestivum) | 25

* * *

- System: galium (catchweed bedstraw, Galium aparine)
- protocol.text: Test B postemergence plant response
- Assay type: in vivo
- measurement.conditions: 125 g ai/ha, postemergence; 0 to 100 scale, 0 no effect, 100 complete control
measurement.label: Plant response rating, Galium

molecule | measurement.label | value.reported
Fc1cnc(Oc2cccc(F)c2-c2cnccn2)nc1 | Plant response rating, Galium | 30
Clc1cnc(Oc2ccccc2-c2cc(C3CC3)on2)nc1 | Plant response rating, Galium | 100
FC(F)(F)c1cc(-c2ccccc2Oc2ncc(Cl)cn2)ncn1 | Plant response rating, Galium | 100
FC(F)c1cc(-c2ccccc2Oc2ncc(Cl)cn2)on1 | Plant response rating, Galium | 100
FC(F)Oc1cccc(Oc2ncc(Cl)cn2)c1-c1cc(C(F)F)no1 | Plant response rating, Galium | 90
COc1cccc(Oc2ncc(Cl)cn2)c1-c1cc(C(F)(F)F)no1 | Plant response rating, Galium | 100
Fc1cccc(Oc2ncc(Br)cn2)c1-c1cc(C(F)F)on1 | Plant response rating, Galium | 100
FC(F)(F)c1cc(-c2c(Cl)cccc2Oc2ncc(Br)cn2)on1 | Plant response rating, Galium | 100
Cc1csc(-c2ccccc2Oc2ncc(Cl)cn2)c1 | Plant response rating, Galium | 50

* * *

- System: Italian ryegrass (Lolium multiflorum)
- protocol.text: Test D pre-/postemergence plant response
- Format: in vivo
- measurement.conditions: Lolium multiflorum, pre-emergence; Preemergence, 125 g ai/ha; read-out: Plant response rating (scale 0 to 100), Ryegrass, Italian
pest or weed control at 125 g/ha reference
measurement.label: pest or weed control at 125 g/ha (%)

molecule | measurement.label | value.reported
Fc1cccc(Oc2ncc(Cl)cn2)c1-c1cc(C(F)(F)F)on1 | pest or weed control at 125 g/ha | 95
Fc1cccc(Oc2ncc(Br)cn2)c1-c1cc(C(F)F)no1 | pest or weed control at 125 g/ha | 85
FC(F)c1cc(-c2ccccc2Oc2ncc(Br)cn2)no1 | pest or weed control at 125 g/ha | 90
FC(F)(F)c1cc(-c2ccccc2Oc2ncc(Cl)cn2)no1 | pest or weed control at 125 g/ha | 90
